Readings of recombinant barcode read abundance (log10) for the listed sequences
assay method text: recombinant barcode read abundance after kanamycin selection (control-corrected) (log10(CPM+1)); higher = more efficient recombination; sequences stand for … in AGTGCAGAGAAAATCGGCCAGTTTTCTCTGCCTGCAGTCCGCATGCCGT…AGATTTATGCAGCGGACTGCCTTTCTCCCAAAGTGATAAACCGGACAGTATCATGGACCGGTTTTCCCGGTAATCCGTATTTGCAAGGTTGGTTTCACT; site = the 11-nt target
readout type: recombinant barcode read abundance (log10)

> print(dat)
                      macromolecule.sequence  reported.measurement
 1  CATAAGCCTTGGGTTCTAACCTGTTGCCT (site CATGAGCCTAG)                0.0152
 2  ACAAACCCTTGGGTTCTAACCTGTTGCTA (site CTGGCAGCTAG)                  0.85
 3  TAGAACTCTTGGGTTCTAACCTGTTGCGT (site TAGAGCTCTAC)                 0.119
 4  TAATATTCTTGGGTTCTAACCTGTTGCCT (site TAGGATTCTAG)                 0.041
 5  GTGAGCACTTGGGTTCTAACCTGTTGCGG (site GTGAGAGCTCC)                0.0559
 6  GACAGTACTTGGGTTCTAACCTGTTGCCT (site GACAGTACTAG)                 0.714
 7  TTACCGACTTGGGTTCTAACCTGTTGCCT (site TTACCCACTAG)                 0.242
 8  CGGCGTCCTTGGGTTCTAACCTGTTGCTA (site CGGGGTCCTTA)                 0.113
 9  AAGAAAGCTTGGGTTCTAACCTGTTGCCT (site AAGATAGCTAG)                 0.464
10  CCGGACCCTTGGGTTCTAACCTGTTGCCT (site CCGGACCCTAG)                  1.88
11  TGGCGCTCTTGGGTTCTAACCTGTTGCCT (site TGCCGCTCTAG)                     0
12  CCTAGAGCTTGGGTTCTAACCTGTTGCCT (site CCTAGATCTAG)                0.0587
13  CTACTAACTTGGGTTCTAACCTGTTGCAT (site CTACTAACTAT)                  1.34
14  ACGGGCTCTTGGGTTCTAACCTGTTGCTT (site AGGGGCTCTCA)                 0.032
15  GATTCTACTTGGGTTCTAACCTGTTGCTT (site GAGTCTACTAA)                 0.813
16  ATCGGACCTTGGGTTCTAACCTGTTGCCT (site ATCGGAACTAG)                0.0754
17  TGCTCTACTTGGGTTCTAACCTGTTGCTG (site TGCTCTACTCA)               0.00915
18  AGTCACACTTGGGTTCTAACCTGTTGCTA (site AGTCACACTCA)                 0.179
19  CTCGGTGCTTGGGTTCTAACCTGTTGCCT (site CACGGTCCTAG)                 0.118
20  CGGACTTCTTGGGTTCTAACCTGTTGCCT (site CAGACTTCTAG)                 0.182
21  GAGAGCACTTGGGTTCTAACCTGTTGCCT (site AAGAGCACTAG)                 0.256
22  AAGGAGACTTGGGTTCTAACCTGTTGCCT (site AAGGAGACTAG)                  2.12
23  GCCATTACTTGGGTTCTAACCTGTTGCCT (site GCCATAACTAG)                0.0468
24  TCAAACCCTTGGGTTCTAACCTGTTGCGG (site TCTAACCCTCC)                 0.279
25  TAGGTCCCTTGGGTTCTAACCTGTTGCAT (site TAGGTACCTAT)                 0.389
26  CCTTGGACTTGGGTTCTAACCTGTTGCAA (site GCTTGGACTCT)                0.0226
27  TCCAACCCTTGGGTTCTAACCTGTTGCGG (site TCTAACCCTCC)                   0.3
28  AAAGTGTCTTGGGTTCTAACCTGTTGCCT (site AACGTGTCTAG)                 0.373
29  GTATCACCTTGGGTTCTAACCTGTTGCCT (site GTATCAGCTAG)                 0.187
30  TCCAGCACTTGGGTTCTAACCTGTTGCCT (site TCCAGCACTAG)                 0.412
31  CTAGACACTTGGGTTCTAACCTGTTGCGG (site CTAGACACTCC)                  2.14
32  GATAGTACTTGGGTTCTAACCTGTTGCCT (site GATAGTGCTAG)                0.0995
33  AGACGTACTTGGGTTCTAACCTGTTGCCT (site AGTCGTACTAG)                0.0904
34  GGAGATGCTTGGGTTCTAACCTGTTGCCT (site GGAGACGCTAG)                 0.291
35  GCTCCATCTTGGGTTCTAACCTGTTGCCT (site GGTCCATCTAG)                 0.122
36  GTGAGGTCTTGGGTTCTAACCTGTTGCTT (site GTGAGGTCTAG)                  1.46
37  TCGTCTCCTTGGGTTCTAACCTGTTGCTT (site TTATCTCCTAA)                 0.386
38  GGGGTCCCTTGGGTTCTAACCTGTTGCTT (site GGGGTCCCTAA)                  2.79
39  GTAATTACTTGGGTTCTAACCTGTTGCCT (site GTAATTACTAG)                 0.441
40  CCAAGGCCTTGGGTTCTAACCTGTTGCCT (site GCAAGGCCTAG)                  0.28
41  CTCTTGGCTTGGGTTCTAACCTGTTGCCT (site CTCTTGGCTAG)                0.0663
42  GCGTGTACTTGGGTTCTAACCTGTTGCCT (site GCGTGTACTAG)                 0.948

###

assay method text: recombinant barcode read abundance after kanamycin selection (control-corrected) (log10(CPM+1)); higher = more efficient recombination; sequences stand for … in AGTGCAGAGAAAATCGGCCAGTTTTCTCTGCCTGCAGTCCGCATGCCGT…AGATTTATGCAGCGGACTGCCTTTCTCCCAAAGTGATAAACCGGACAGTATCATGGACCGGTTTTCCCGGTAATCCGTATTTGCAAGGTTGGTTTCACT; site = the 11-nt target
Lab note: anything with recombinant barcode read abundance (log10) at or over 0.3 counts as T; the rest go in F.

> print(dat)
                      macromolecule.sequence  cat
 1  TTGAATCCTTGGGTTCTAACCTGTTGCCA (site TTGAATCCTTG)    T
 2  TGTCTCCCTTGGGTTCTAACCTGTTGCCG (site TGTCTCCCTCG)    F
 3  GGTGCTCCTTGGGTTCTAACCTGTTGCAA (site GGTGCTCCTCT)    F
 4  GCACGTGCTTGGGTTCTAACCTGTTGCCT (site GCTCGTGCTAG)    F
 5  TCGGCGACTTGGGTTCTAACCTGTTGCCT (site TCCGCGACTAG)    F
 6  CTCATACCTTGGGTTCTAACCTGTTGCGT (site CTAATACCTAC)    F
 7  CTCCGTCCTTGGGTTCTAACCTGTTGCCT (site CTGCGTCCTAG)    F
 8  AGTGAGACTTGGGTTCTAACCTGTTGCGG (site AGTGAGACTCC)    T
 9  TCCAAAGCTTGGGTTCTAACCTGTTGCTA (site TCCAAAGCTTA)    F
10  TGGCCCTCTTGGGTTCTAACCTGTTGCTG (site TGGCCCTCTTA)    F

###

assay method text: recombinant UMI read abundance after kanamycin selection (control-corrected) (log10(CPM+1)); higher = more efficient recombination; extreme values may be limits of the assay; sequences stand for … in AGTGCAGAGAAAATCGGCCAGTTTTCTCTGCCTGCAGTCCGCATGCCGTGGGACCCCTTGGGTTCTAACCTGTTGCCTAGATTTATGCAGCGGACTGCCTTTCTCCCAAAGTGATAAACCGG…AGGTTGGTTTCACT; site = the 11-nt donor
Readings of recombinant UMI read abundance (log10) for the listed sequences
readout type: recombinant UMI read abundance (log10)

> print(dat)
                      macromolecule.sequence                            readout.type  reported.measurement
 1  GCGGAGGCATGGACCGGTTTTCCCGGTAATCCGTATTTGTG (site GGGGAGGCTCA)  recombinant UMI read abundance (log10)                 0.333
 2  AAGCAAGCATGGACCGGTTTTCCCGGTAATCCGTATTTGGG (site AAGCAGGCTCC)  recombinant UMI read abundance (log10)                     0
 3  AGCCGCTCATGGACCGGTTTTCCCGGTAATCCGTATTTGAT (site AGCCGCTCTAT)  recombinant UMI read abundance (log10)                  1.65
 4  AAAGGTACATGGACCGGTTTTCCCGGTAATCCGTATTTGAG (site AAAGGTACTCT)  recombinant UMI read abundance (log10)                   2.1
 5  TCTGAGCCATGGACCGGTTTTCCCGGTAATCCGTATTTGAT (site TCTGAGCCTAT)  recombinant UMI read abundance (log10)               0.00231
 6  ATAACGCCATGGACCGGTTTTCCCGGTAATCCGTATTTGAC (site ATAATGCCTGT)  recombinant UMI read abundance (log10)                     0
 7  TCAATTTCATGGACCGGTTTTCCCGGTAATCCGTATTTGGC (site TCAATTTCTGC)  recombinant UMI read abundance (log10)                     0
 8  GAGTCCTCATGGACCGGTTTTCCCGGTAATCCGTATTTGCC (site GAGTCCTCTGG)  recombinant UMI read abundance (log10)                     0
 9  ATCTATTCATGGACCGGTTTTCCCGGTAATCCGTATTTGAC (site ATCTATACTGT)  recombinant UMI read abundance (log10)               0.00799
10  CCCAAAGCATGGACCGGTTTTCCCGGTAATCCGTATTTGAT (site CCCAAAGCTAT)  recombinant UMI read abundance (log10)                 0.774
11  GCGAAAACATGGACCGGTTTTCCCGGTAATCCGTATTTGCT (site GAGAAAACTAG)  recombinant UMI read abundance (log10)                     0
12  AATTGTGCATGGACCGGTTTTCCCGGTAATCCGTATTTGGA (site AATTATGCTTC)  recombinant UMI read abundance (log10)                 0.773
13  TACCTGACATGGACCGGTTTTCCCGGTAATCCGTATTTGCT (site TACCTGACTAG)  recombinant UMI read abundance (log10)                 0.461
14  TGATCATCATGGACCGGTTTTCCCGGTAATCCGTATTTGCT (site TGATCATCTAG)  recombinant UMI read abundance (log10)                 0.945
15  GACTGGACATGGACCGGTTTTCCCGGTAATCCGTATTTGAC (site GACTGGACTGT)  recombinant UMI read abundance (log10)                  1.89
16  CATTAGACATGGACCGGTTTTCCCGGTAATCCGTATTTGAG (site CATTAGACTCT)  recombinant UMI read abundance (log10)                  1.89
17  CAAGCGACATGGACCGGTTTTCCCGGTAATCCGTATTTGTG (site CAAGCGCCTCA)  recombinant UMI read abundance (log10)               0.00397
18  CTACTAGCATGGACCGGTTTTCCCGGTAATCCGTATTTGGA (site CTACTATCTTC)  recombinant UMI read abundance (log10)                  2.05
